test system: NCI-H292 lung cancer cells; assay: FDA drug screening, complete media vs cholesterol-free media with simvastatin (TABLE 2); format: cell-based, human; settings: NCI-H292 cells, FDA library drug in complete media
Structures can show the parent of a compound that is named as a salt.
Returns one of t or f; t when Complete Media is >= 0.9.

Here are 4 molecules together with their reported answers.
Molecule	Assigned label
NC[C@H]1O[C@H](O[C@H]2[C@H](O[C@@H]3O[C@H](CO)[C@@H](O)[C@H]3O)[C@@H](O)[C@H](N)C[C@@H]2N)[C@H](N)[C@@H](O)[C@@H]1O.O=S(=O)(O)O [Ribostamycin (sulfate)]	t
CCC(=O)OCC(=O)[C@@]1(OC(=O)CC)[C@@H](C)C[C@H]2[C@@H]3CCC4=CC(=O)C=C[C@]4(C)[C@@]3(Cl)[C@@H](O)C[C@@]21C [Beclometasone dipropionate]	f
C[N+](C)(C)CCOP(=O)([O-])OC[C@H](O)CO	f
CC(=O)N(CC(O)CO)c1c(I)c(C(=O)NCC(O)CO)c(I)c(C(=O)NCC(O)CO)c1I (stereo not shown) [Iohexol]	f

Identify whether the reported Complete Media of the following molecule is 0.9 or greater: Nc1cccc2c1CN(C1CCC(=O)NC1=O)C2=O (stereo not shown) [Lenalidomide (hemihydrate)]
t

Identify whether the reported Complete Media of the following molecule is 0.9 or greater: CC1=C(C(=O)O)N2C(=O)[C@@H](NC(=O)[C@H](N)c3ccccc3)[C@H]2SC1 [Cephalexin]
t

Identify whether the reported Complete Media of the following molecule is 0.9 or greater: CCN(CC)CCNC(=O)c1ccc(N)cc1 [Procainamide (hydrochloride)]
t

----------
system: NCI-H292 lung cancer cells; assay: FDA drug screening, complete media vs cholesterol-free media without statin (TABLE 1); assay type: cell-based, human; settings: NCI-H292 cells, FDA drug library screen, cholesterol-free media without statin
Below: a set of entries, each annotated with reported Cholesterol-free.
Form: value (number only, do not type unit).

# annotated cases, reported Cholesterol-free shown
Compound	Measured property	Readout value
CS(=O)(=O)c1ccc([C@@H](O)[C@@H](CF)NC(=O)C(Cl)Cl)cc1	Cholesterol-free	0.8542
O=C(O)CSc1nnc(Br)n1-c1ccc(C2CC2)c2ccccc12	Cholesterol-free	1.092
O=C(Nc1cnn2ccc(N3CCC[C@@H]3c3cc(F)ccc3F)nc12)N1CC[C@H](O)C1	Cholesterol-free	1.012
NC(N)=Nc1nc(CSCCC(N)=NS(N)(=O)=O)cs1	Cholesterol-free	1.016
N=C(N)c1ccc(OCCCCCOc2ccc(C(=N)N)cc2)cc1.O=S(=O)(O)CCO.O=S(=O)(O)CCO [Pentamidine (isethionate)]	Cholesterol-free	0.6432

Print NCI-H292 lung cancer cells Cholesterol-free for COc1cc([C@@H]2c3cc4c(cc3[C@@H](O[C@@H]3O[C@@H]5CO[C@@H](c6cccs6)O[C@H]5[C@H](O)[C@H]3O)[C@H]3COC(=O)[C@H]23)OCO4)cc(OC)c1O [Teniposide] .
0.1831

Print NCI-H292 lung cancer cells Cholesterol-free for C#Cc1cccc(Nc2ncnc3cc(OCCOC)c(OCCOC)cc23)c1 .
0.6096

Print NCI-H292 lung cancer cells Cholesterol-free for CC1(C)S[C@@H]2[C@H](NC(=O)[C@H](N)c3ccc(O)cc3)C(=O)N2[C@H]1C(=O)[O-].[Na+] [Amoxicillin (sodium)] .
0.8965

Print NCI-H292 lung cancer cells Cholesterol-free for Cc1cccc(C(C)c2cnc[nH]2)c1C (centres unmarked) .
1.034

Print NCI-H292 lung cancer cells Cholesterol-free for C[C@H]1C(=O)O[C@@H]2CCN3CC=C(COC(=O)[C@](C)(O)[C@]1(C)O)[C@H]23 .
1.01

----------
Below: a set of entries, each annotated with reported Difference.
tested on: NCI-H292 lung cancer cells; assay: FDA drug screening, complete media vs cholesterol-free media without statin (TABLE 1); type: cell-based, human; conditions: complete vs cholesterol-free media; greater than 0 enhanced anti-cancer activity, about 0 neutral, below 0 antagonists
Where a name gives a salt, the structure may show the parent alone.
Form: value (number only, do not type unit).

Molecule	Difference
CCCOC(=O)c1cc(O)c(O)c(O)c1 [Propyl gallate]	−0.42
C[C@H](Cc1cc2c(c(C(N)=O)c1)N(CCCO)CC2)NCCOc1ccccc1OCC(F)(F)F [Silodosin]	−0.41
CCN(CC)CCOC(=O)C1(C2CCCCC2)CCCCC1 [Dicyclomine (hydrochloride)]	−0.36

Answer with the recorded Difference for the molecule listed here: CN1CCC(=C2c3ccccc3Sc3ccccc32)CC1 [Pimethixene maleate]
−0.35

Answer with the recorded Difference for the molecule listed here: N=C(N)/N=C(\N)N1CCOCC1 [Moroxydine (hydrochloride)]
−0.32

Answer with the recorded Difference for the molecule listed here: COCCOC(=O)C1=C(C)NC(C)=C(C(=O)OC(C)C)C1c1cccc([N+](=O)[O-])c1 (stereo not drawn) [Nimodipine]
−0.38

Answer with the recorded Difference for the molecule listed here: CC(C)/N=c1\cc2n(-c3ccc(Cl)cc3)c3ccccc3nc-2cc1Nc1ccc(Cl)cc1 [Clofazimine]
−0.43

Answer with the recorded Difference for the molecule listed here: CS(=O)(=O)Nc1cc2occ(NC=O)c(=O)c2cc1Oc1ccccc1 [Iguratimod]
−0.35

Answer with the recorded Difference for the molecule listed here: CCOC(=O)COc1ccc2c(=O)cc(-c3ccccc3)oc2c1 [Efloxate]
−0.42

----------
test system: NCI-H292 lung cancer cells; experiment: FDA drug screening, complete media vs cholesterol-free media without statin (TABLE 1); assay type: cell-based, human; conditions: NCI-H292 cells, cholesterol-free media without statin, FDA drug library screen
Where a name gives a salt, the structure may show the parent alone.
Measured property: Cholesterol-free
Form: value (number only, do not type unit).

# annotated cases, reported Cholesterol-free shown
Molecule	Cholesterol-free
CC[C@@]1(O)C[C@H](O[C@H]2C[C@H](N(C)C)[C@H](O[C@H]3C[C@H](O)[C@H](O[C@H]4CCC(=O)[C@H](C)O4)[C@H](C)O3)[C@H](C)O2)c2c(cc3c(c2O)C(=O)c2c(O)cccc2C3=O)[C@H]1C(=O)OC.Cl [Aclacinomycin A hydrochloride]	0.01335
Nc1c2c(nc3ccccc13)CCCC2 [Tacrine hydrochloride hydrate]	1.254
O=C1CCC[C@@H]2[C@H]3CCC[N+]4([O-])CCC[C@@H](CN12)[C@@H]34 (stereo partly shown)	0.9493
CCOC(=O)[C@H](C)C[C@@H](Cc1ccc(-c2ccccc2)cc1)NC(=O)CCC(=O)O [Sacubitril hemicalcium salt]	0.6536

Answer with the recorded Cholesterol-free for the molecule listed here: CCc1nn(CCCN2CCN(c3cccc(Cl)c3)CC2)c(=O)n1CCOc1ccccc1 [Nefazodone (hydrochloride)]
0.8256

Answer with the recorded Cholesterol-free for the molecule listed here: C[C@@H](Oc1cc(-c2cnn(C3CCNCC3)c2)cnc1N)c1c(Cl)ccc(F)c1Cl
0.1411

Answer with the recorded Cholesterol-free for the molecule listed here: N[C@@H](CCC(=O)O)C(=O)[O-].[Na+] [L-Glutamic acid monosodium salt]
1.093

Answer with the recorded Cholesterol-free for the molecule listed here: CC(N)C12CC3CC(CC(C3)C1)C2 (stereo not shown) [Rimantadine (hydrochloride)]
0.8509

Answer with the recorded Cholesterol-free for the molecule listed here: CC(=O)O[C@H]1C[C@H](O[C@H]2[C@@H](O)C[C@H](O[C@H]3[C@@H](O)C[C@H](O[C@H]4CC[C@@]5(C)[C@H](CC[C@@H]6[C@@H]5C[C@@H](O)[C@]5(C)[C@@H](C7=CC(=O)OC7)CC[C@]65O)C4)O[C@@H]3C)O[C@@H]2C)O[C@H](C)[C@H]1O[C@@H]1O[C@H](CO)[C@@H](O)[C@H](O)[C@H]1O [Lanatoside C]
7.102E−18

Answer with the recorded Cholesterol-free for the molecule listed here: CCOc1nc2cccc(C(=O)O)c2n1Cc1ccc(-c2ccccc2-c2nnn[nH]2)cc1
0.9494

Answer with the recorded Cholesterol-free for the molecule listed here: NC[C@H]1O[C@H](O[C@H]2[C@H](O)[C@@H](O[C@H]3O[C@H](CO)[C@@H](O)[C@H](N)[C@H]3O)[C@H](N)C[C@@H]2N)[C@H](N)C[C@@H]1O
1.416

Answer with the recorded Cholesterol-free for the molecule listed here: CCCc1nc2c(C)cc(-c3nc4ccccc4n3C)cc2n1Cc1ccc(-c2ccccc2C(=O)O)cc1
1.319

Answer with the recorded Cholesterol-free for the molecule listed here: O=C(O)/C=C/c1ccc(O)c(O)c1
0.885

----------
test system: NCI-H292 lung cancer cells; test: FDA drug screening, complete media vs cholesterol-free media without statin (TABLE 1); assay type: cell-based, human; details: NCI-H292 cells, cholesterol-free media without statin
Below: a set of entries, each annotated with reported Cholesterol-free.

Compound	Cholesterol-free
CC(=O)SCC(Cc1ccccc1)C(=O)NCC(=O)OCc1ccccc1 (stereo not shown)	1.294
O=[N+]([O-])O[C@@H]1CO[C@H]2[C@@H]1OC[C@@H]2O [Isosorbide mononitrate]	1.459
CC(=O)c1c(C)c2cnc(Nc3ccc(N4CCNCC4)cn3)nc2n(C2CCCC2)c1=O.O=S(=O)(O)CCO [Palbociclib (isethionate)]	0.905

Print NCI-H292 lung cancer cells Cholesterol-free for CC(O)C(=O)O.CCOc1ccc2nc3cc(N)ccc3c(N)c2c1 [Ethacridine (lactate)] .
0.3206

Print NCI-H292 lung cancer cells Cholesterol-free for CC(C)c1nc(N(C)S(C)(=O)=O)nc(-c2ccc(F)cc2)c1/C=C/[C@@H](O)C[C@@H](O)CC(=O)O .
1.156

Print NCI-H292 lung cancer cells Cholesterol-free for CCCN1CCCC[C@H]1C(=O)Nc1c(C)cccc1C .
1.098

Print NCI-H292 lung cancer cells Cholesterol-free for CO[C@@]1(NC(=O)C2SC(=C(C(N)=O)C(=O)O)S2)C(=O)N2C(C(=O)O)=C(CSc3nnnn3C)CS[C@@H]21 (stereo partly shown) .
1.196
